// data source = the supplement of paper PMC7877785

- Assay notes: self-splicing fitness, log relative to wild type (ln ratio); higher = more splicing; Tetrahymena group I intron in knt gene, E. coli kanamycin selection, DiMSum; sequences stand for … in CUCUCU…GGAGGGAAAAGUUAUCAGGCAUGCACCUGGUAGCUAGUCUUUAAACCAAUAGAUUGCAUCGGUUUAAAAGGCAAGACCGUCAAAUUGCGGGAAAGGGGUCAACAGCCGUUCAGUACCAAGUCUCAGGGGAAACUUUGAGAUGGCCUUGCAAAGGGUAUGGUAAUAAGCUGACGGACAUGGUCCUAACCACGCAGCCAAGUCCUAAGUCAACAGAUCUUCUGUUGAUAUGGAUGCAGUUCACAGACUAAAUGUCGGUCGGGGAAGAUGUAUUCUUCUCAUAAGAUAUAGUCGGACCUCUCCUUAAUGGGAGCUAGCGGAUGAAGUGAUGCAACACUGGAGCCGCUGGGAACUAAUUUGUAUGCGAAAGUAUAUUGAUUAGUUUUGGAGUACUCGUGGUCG;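 note: selection with 25 µg/mL kanamycin versus none on LB agar overnight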
- Stated conditions: 30 °C
Tick met if self-splicing fitness (ln) is -2 or greater. Tick not met if self-splicing fitness (ln) is less than -2.

Field: example entries. Status: answers known.
UGUAAGCAAUAUUACGUCCG = met
CUUGAGCAAUAUUACGGUCC = met
CAGUAGCAAUAUUACGGCGG = met
AAUGAGCAAUAUUACGCCAU = not met

Exercise: Hello, I need to know if CUAGAGCAAUAUUACGUGGU has measured self-splicing fitness (ln) not below -2. Thanks!
Solution: not met

Exercise: Reported self-splicing fitness (ln) reaches at least -2 for GCCAAGCAAUAUUACGAGAG ?
Solution: not met

Exercise: Determine whether this sequence has self-splicing fitness (ln) no lower than -2: CGGCAGCAAUAUUACGGCAA
Solution: met

Exercise: Test whether the sequence CAGUAGCAAUAUUACGCAUU records self-splicing fitness (ln) of -2 or higher.
Solution: met

Exercise: Assess whether reported self-splicing fitness (ln) for CCUCAGCAAUAUUACGCAUU sits at -2 or higher.
Solution: not met

Exercise: Please check the record AACUAGCAAUAUUACGGGUG and state if its self-splicing fitness (ln) is at or above -2.
Solution: met

Exercise: Please indicate if the recorded self-splicing fitness (ln) for GACCAGCAAUAUUACGCCUC meets or exceeds -2.
Solution: met

Exercise: For this sequence, is measured self-splicing fitness (ln) -2 or higher? GCUUAGCAAUAUUACGCAUA
Solution: met

Exercise: Reported self-splicing fitness (ln) reaches at least -2 for AGAAAGCAAUAUUACGCCUC ?
Solution: met

Exercise: Does the reported self-splicing fitness (ln) for ACACAGCAAUAUUACGGAGU fall at or above the -2 mark?
Solution: not met

Exercise: Reported self-splicing fitness (ln) reaches at least -2 for GCGCAGCAAUAUUACGCUAU ?
Solution: met

Exercise: Determine whether this sequence has self-splicing fitness (ln) no lower than -2: AUGGAGCAAUAUUACGGGUA
Solution: not met

Exercise: Is self-splicing fitness (ln) for UCCUAGCAAUAUUACGUACA at or above -2?
Solution: not met

Exercise: State whether the measured self-splicing fitness (ln) reaches -2, counting equality as reaching it, for CUAGAGCAAUAUUACGCAGG
Solution: not met

Exercise: Record CCUUAGCAAUAUUACGGCGG ; criterion: self-splicing fitness (ln) no lower than -2. Met?
Solution: not met

Exercise: Assess whether reported self-splicing fitness (ln) for UACGAGCAAUAUUACGGUUA sits at -2 or higher.
Solution: met

Exercise: Check if self-splicing fitness (ln) >= -2 (inclusive). Item: UAGGAGCAAUAUUACGCGGU
Solution: met

Exercise: Textbook exercise: given the entry AUUAAGCAAUAUUACGGACG , state whether its self-splicing fitness (ln) is greater than or equal to -2.
Solution: met

Exercise: Could you verify whether the entry GCGGAGCAAUAUUACGAACG shows self-splicing fitness (ln) of no less than -2?
Solution: not met
